- assay.procedure: chemical genetic growth profiling, strain panel (AID 1159580);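 also: tested at 20 µM; growth read once vehicle control cultures reached saturation at 30 °C; 1 = growth at the plate median or of vehicle wells; lower values mean less growth of the strain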
- condition.summary: S. cerevisiae deletion strains, growth OD, locus YLR320W, strain mms22, active compounds read low
The whole screen tested about 5,500 compounds, of which about 2,000 (36%) were called active. Roughly 18% stayed inconclusive and do not appear here. The list shows a part of the results.
measured.metric: normalized growth
Provide a numeric answer; units are not to be included.

Q. What normalized growth value was documented for this compound, C[C@@H]1CC[C@@]2(OC1)OC1C(O)C3C4CC[C@H]5C[C@H](O[C@@H]6O[C@H](CO)[C@H](O[C@@H]7O[C@H](CO)[C@@H](O)[C@H](O[C@@H]8OC[C@@H](O)[C@H](O)[C@H]8O)[C@H]7O[C@@H]7O[C@H](CO)[C@H](O)[C@H](O[C@@H]8O[C@H](CO)[C@@H](O)[C@H](O)[C@H]8O)[C@H]7O)[C@H](O)[C@H]6O)[C@H](O)C[C@]5(C)C4CC[C@]3(C)C1[C@@H]2C (stereo partly specified) ?
A. 0.985

Q. What value of normalized growth has been reported for the following compound? `O=c1c(-c2ccccc2)coc2cc(O)cc(O)c12`
A. 0.98

Q. // query normalized growth value for entry `O=C(O)c1nc2cc(Cl)c(Cl)cc2[nH]c1=O`
A. 1.02

Q. Entry under review: `CCn1cc(C(=O)O)c(=O)c2cc(F)c(N3CCNCC3)cc21` . Reported normalized growth?
A. 0.998

Q. Param item = CC(=O)O[C@H]1C[C@@]2(C)[C@H](c3ccoc3)OC(=O)[C@H]3O[C@]32[C@@]2(C)C1[C@]1(C)C(C[C@H]2OC(C)=O)C(C)(C)[C@H](OC(C)=O)C[C@@H]1OC(C)=O (stereo partly specified) ; retrieve measured normalized growth.
A. 0.999

Others:
Q. Given the compound `CC(C)(Oc1ccc(Cl)cc1)C(=O)O` , what is its reported normalized growth?
A. 0.98

----------
- assay.procedure: chemical genetic growth profiling, strain panel (AID 1159580)
- condition.summary: S. cerevisiae deletion strains, growth OD, locus YDR137W, strain rgp1, active compounds read low
The campaign covered roughly 5,500 compounds. About 2,000 (36%) were called active. About 18% were inconclusive and are not listed. The list shows a part of the results.
Overview of recorded normalized growth for various compounds
API doc: respond with a numeric literal and nothing else, no unit.

Q. Could you tell me which normalized growth is on file for `O=C(O)c1nc2cc(Cl)c(Cl)cc2[nH]c1=O` ?
A. 0.974

Q. Value lookup for normalized growth; key = CC(=O)O[C@@H]1CC2C(C)(C)C(=O)CC[C@]2(C)C2CC[C@@]3(C)[C@H](c4ccoc4)OC(=O)C4OC43[C@@]21C (some centres not stated)
A. 0.968

Q. Could you tell me which normalized growth is on file for `ClC(Cl)=C(c1ccc(Cl)cc1)c1ccc(Cl)cc1` ?
A. 1.04

Q. Record request: normalized growth value, item COC(=O)C1=C(C)NC(C)=C(C(=O)OCCN(C)Cc2ccccc2)C1c1cccc([N+](=O)[O-])c1 (configuration not stated)
A. 1.02

Next:
Q. Recorded normalized growth for CCCCOc1cc(CC2CNC(=O)N2)ccc1OC (configuration not stated) , please?
A. 0.971

Q. Item under review: `NCCc1ccc(O)c(O)c1` . Reported normalized growth?
A. 1.03

Q. Value lookup for normalized growth; key = COC(=O)C1=C(C)NC(C)=C(C(=O)OCC(C)C)C1c1ccccc1[N+](=O)[O-] (configuration not stated)
A. 0.866

Q. Field request: normalized growth | item: `O=C(O)c1cc(=O)c2ccccc2o1`
A. 0.971

Q. Fill in the blank: the reported normalized growth of `O=c1c(-c2cc(O)c(O)c(O)c2)coc2cc(O)c(O)c(O)c12` is ____.
A. 0.716

Q. Given `CCCCCCc1ccc(O)cc1O` , state its recorded normalized growth.
A. 0.608

Q. Please report the recorded normalized growth for Cn1nnnc1SCC1=C(C(=O)O)N2C(=O)C(NC(=O)C(O)c3ccccc3)C2SC1 (configuration not stated) .
A. 0.943

Q. I would be grateful if you could share the reported normalized growth for CC(=O)O[C@@H]1CC2C(C)(C)[C@H](O)C[C@H](O)[C@]2(C)C2CC[C@@]3(C)[C@H](c4ccoc4)OC(=O)[C@H]4O[C@]43[C@@]21C (some centres not stated) .
A. 1.03

----------
Reported values of normalized growth for individual entries
- assay.procedure: chemical genetic growth profiling, strain panel (AID 1159580);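 also: tested at 20 µM; growth read once vehicle control cultures reached saturation at 30 °C; 1 = growth at the plate median or of vehicle wells; lower values mean less growth of the strain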
- condition.summary: S. cerevisiae deletion strains, growth OD, locus YAL030W, strain snc1, active compounds read low
Screen size: about 5,500 compounds; about 2,000 (36%) were called active. Not shown: some 18% with an inconclusive outcome. Some of the results follow.
Number, no unit, nothing else.

Q. Look at this molecule and give its reported normalized growth. `CC(C)c1ccc2c(c1O)CC[C@H]1C3=C(CC[C@]21C)C(=O)OC3`
A. 0.969

Q. Entry `CC(=O)Oc1ccc(-c2cc(=O)c3c(OC(C)=O)cc(OC(C)=O)cc3o2)cc1` has what normalized growth?
A. 0.975

Q. Could you share which normalized growth value was measured for `COc1ccc(-c2coc3cc(OC(C)=O)cc(OC(C)=O)c3c2=O)cc1` ?
A. 0.958

Q. Which normalized growth value belongs to `CN(C)CCC=C1c2ccccc2CCc2ccccc21` ?
A. 0.995

----------
Collected normalized growth values appear next to each entry.
- assay.procedure: chemical genetic growth profiling, strain panel (AID 1159580);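 also: tested at 20 µM; growth read once vehicle control cultures reached saturation at 30 °C; 1 = growth at the plate median or of vehicle wells; lower values mean less growth of the strain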
- condition.summary: S. cerevisiae deletion strains, growth OD, locus YLR342W, strain FKS1 (second series), active compounds read low
Hit rate of the full screen: of about 5,500 compounds, about 2,000 (36%) were called active. Inconclusive results (about 18%) are left out. The list shows a part of the results.
Form field (numeric): enter value without unit.

Q. Look up normalized growth: `N[C@@H]1CONC1=O`
A. 1.02

Q. Fill in: normalized growth of `Nc1ccc(C(=O)O)c(O)c1` is ___
A. 1.04

Q. normalized growth for `CN1CCc2c(c3ccccc3n2Cc2ccccc2)C1` ?
A. 0.64

Q. Consider the compound `CC(=O)Nc1cccc(O)c1` and give its measured normalized growth.
A. 1

Q. # get_value(readout='normalized growth', item= `CC(C)[C@]12O[C@H]1[C@@H]1O[C@@]13[C@@]1(C)CCC4=C(COC4=O)[C@@H]1C[C@@H]1O[C@@]13C2=O` )
A. 0.978

Let us examine a further case.
Q. Please report the recorded normalized growth for `CC(C)c1ccc2c(c1O)CC[C@H]1C3=C(CC[C@]21C)C(=O)OC3` .
A. 0.65

----------
Reported normalized growth values follow for various compounds
- assay.procedure: chemical genetic growth profiling, strain panel (AID 1159580);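 also: tested at 20 µM; growth read once vehicle control cultures reached saturation at 30 °C; 1 = growth at the plate median or of vehicle wells; lower values mean less growth of the strain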
- condition.summary: S. cerevisiae deletion strains, growth OD, locus YML016C, strain PPZ1, active compounds read low
About 2,000 (36%) of roughly 5,500 compounds were called active. About 18% were inconclusive and are not listed. This is one part of the list.
Enter the number alone.

Below, 2 compounds whose answers are already recorded.
Q. Which normalized growth value belongs to `CCC/C=C/C=C/[C@@H]1C[C@@H](O)[C@@H](O)C(=O)[C@H]1C=O` ?
A. 0.986

Q. What value of normalized growth has been reported for the following compound? `CC(=O)Oc1cc(-c2coc3cc(OC(C)=O)c(OC(C)=O)c(OC(C)=O)c3c2=O)cc(OC(C)=O)c1OC(C)=O`
A. 0.71

New cases:
Q. Bench note: what normalized growth did CC(=O)O[C@@H]1CC2C(C)(C)C(=O)CC[C@]2(C)C2CC[C@@]3(C)[C@H](c4ccoc4)OC(=O)C4OC43[C@@]21C (stereo not given in full) show?
A. 0.994

Q. What value of measured normalized growth is listed for COCCOC(=O)C1=C(C)NC(C)=C(C(=O)OC(C)C)C1c1cccc([N+](=O)[O-])c1 (stereo not given) ?
A. 1

Q. Quick one: normalized growth of `NCCc1ccc(O)cc1` ?
A. 1

Q. Which measured normalized growth value corresponds to CC(=O)OC1CC2C(C)(C)CCCC2(C)C2CCC3(C)C(c4ccoc4)OC(=O)C4OC43C12C (stereo not given) ?
A. 1.01

Q. Fill in: normalized growth of CC1(C)O[C@@H]2CC3C4CCC5=CC(=O)C=C[C@]5(C)[C@@]4(F)[C@@H](O)C[C@]3(C)[C@]2(C(=O)CO)O1 (stereo not given in full) is ___
A. 1.01

Q. # lookup: normalized growth of `COc1cccc(-c2cc(=O)c3cc(OC)ccc3o2)c1`
A. 0.987

Q. For the compound `Nc1nc(N)c2nc(-c3ccccc3)c(N)nc2n1` , what normalized growth is on record?
A. 0.999

Q. Fill blank: measured normalized growth of the compound `CC(C)=CCc1c2c(c(O)c3c(=O)c(O)c(-c4ccccc4)oc13)C=CC(C)(C)O2` is ____.
A. 0.484

Q. Look up normalized growth for this compound: CN1CCN2c3ccccc3Cc3ccccc3C2C1 (stereo not given)
A. 1.01

Q. Fill in: normalized growth of `CC1=NCCc2c1[nH]c1cc(O)ccc21` is ___
A. 0.997

Q. Which normalized growth is reported for this compound? Nc1ccc(C(=O)O)c(O)c1 (tested in a mixture with another compound)
A. 0.99

Q. Give the measured normalized growth of `COc1cccc(-c2cc(=O)c3ccc(OC)cc3o2)c1` .
A. 0.998

Q. GET /values?readout=normalized growth&item= CC(=O)O[C@@H]1CC2C(C)(C)CCC(=O)[C@]2(C)C2CC[C@@]3(C)[C@H](c4ccoc4)OC(=O)C4OC43[C@@]21C (stereo not given in full)
A. 0.999
